procedure.summary: folding stability dG unfold (combined trypsin and chymotrypsin); higher = more stable
outcome.measure: folding stability dG unfold (kcal/mol)
Numbers only; they are read as kcal/mol.

Name the reported folding stability dG unfold value associated with the sequence SANPIPLEKANITVSYTSPDGLVVTANITSVTYDPSTGKYTFTFTGTLTDPSTGTTTPVSFTVSTVTLSSAG [r14_825_JUSTAS]
3.79

Another: SAGMIKVEVVVPPEDPSKPPSEEELRALAEEVVRELGLDPAKHPIEIKREVVDPEKGVLRYTITVKLPSAGG [r19_244_JUSTAS]
2.96

Another: SAGGSAGGPVSVDPSTGTVTITVPPGTATPVVEAIAAALGLPVETATTPLPDGTTTVTVTIPAASAGGSAGG [r6_419_JUSTAS]
0.844

The values you see were collected from the supplement of paper PMC12764529.
